system: primary AML patient cells (S079); assay: viability relative to DMSO control (fraction); higher = less drug effect (more viable cells); details: 15 µM; 48 h
ATTRIBUTE_MEASURED: viability
Give bare numbers.

See these solved cases before continuing.
> print(dat)
                      smiles.representation  reading
1  CCN1CCN(Cc2ccc(Nc3ncc(F)c(-c4cc(F)c5nc(C)n(C(C)C)c5c4)n3)nc2)CC1   0.0143
2  N#Cc1ccnc(N2C(=O)CC[C@H]2C(=O)N(c2cncc(F)c2)[C@H](C(=O)NC2CC(F)(F)C2)c2ccccc2Cl)c1    0.844
3  Cc1cc(Nc2ncc(Cl)c(Nc3ccccc3S(=O)(=O)C(C)C)n2)c(OC(C)C)cc1C1CCNCC1   0.0169

q: Please indicate viability recorded for Nc1ncn([C@H]2C[C@H](O)[C@@H](CO)O2)c(=O)n1
a: 0.814

====

tested on: primary AML patient cells (S081); test: viability relative to DMSO control (fraction); higher = less drug effect (more viable cells); conditions: 15 µM; 48 h
ATTRIBUTE_MEASURED: viability

> print(dat)
                      smiles.representation  reading
1  CNC(=O)c1cc(Oc2ccc(NC(=O)Nc3ccc(Cl)c(C(F)(F)F)c3)cc2)ccn1     1.06
2  O=C(c1cc(Cc2n[nH]c(=O)c3ccccc23)ccc1F)N1CCN(C(=O)C2CC2)CC1    0.894

Respectfully, I request viability for each entry included below.
1. N#CC[C@H](C1CCCC1)n1cc(-c2ncnc3[nH]ccc23)cn1
2. Nc1nc(=S)c2[nH]cnc2[nH]1
3. N#Cc1ccnc(N2C(=O)CC[C@H]2C(=O)N(c2cncc(F)c2)[C@H](C(=O)NC2CC(F)(F)C2)c2ccccc2Cl)c1
4. CCc1nc(C(N)=O)c(Nc2ccc(N3CCC(N4CCN(C)CC4)CC3)c(OC)c2)nc1NC1CCOCC1
5. Oc1ccc(/C=C/c2cc(O)cc(O)c2)cc1

a:
0.817
0.319
0.968
0.599
0.794

====

Provide the reported viability of each item.
system: primary AML patient cells (S002); experiment: viability relative to DMSO control (fraction); higher = less drug effect (more viable cells); settings: 10 µM; 48 h
One number for each entry.

Solved cases (2 shown):
> print(dat)
                                   compound  reading
1  Nc1nc(F)nc2c1ncn2[C@@H]1O[C@H](CO)[C@@H](O)[C@@H]1O [Fludarabine]    0.313
2  CC1(COc2ccc3c(c2)ncn3-c2ccc3cccc(N4CCC(N)CC4)c3n2)COC1 [Crenolanib]    0.426

Please turn your attention to the following entry.
q: Provide only the value of recorded viability for O=C(Nc1nc2ccccc2n1CCN1CCOCC1)c1cccc([N+](=O)[O-])c1 [IRAK-1/4 INHIBITOR I]
a: 1.03

====

tested on: primary AML patient cells (S055); assay: viability relative to DMSO control (fraction); higher = less drug effect (more viable cells); settings: 3 µM; 48 h
So I've got a bunch of molecules here, and I need their viability values.
Answers are plain numbers.

Answer for every listed entry: what is its viability? The entries follow.
1. N#CC[C@H](C1CCCC1)n1cc(-c2ncnc3[nH]ccc23)cn1
2. C[C@@H](Oc1cc(-c2cnn(C3CCNCC3)c2)cnc1N)c1c(Cl)ccc(F)c1Cl
3. CS(=O)(=O)c1ccc(C(=O)Nc2ccc(Cl)c(-c3ccccn3)c2)c(Cl)c1

a:
1: 1.03; 2: 0.683; 3: 0.925

====

tested on: primary ALL patient cells (S088); experiment: viability relative to DMSO control (fraction); higher = less drug effect (more viable cells); conditions: 0.12 µM; 48 h
ATTRIBUTE_MEASURED: viability
Numbers only.

As a guide, the following entries are already answered.
> print(dat)
                      smiles.representation                     tested.system  reading
1  CS(=O)(=O)c1ccc(C(=O)Nc2ccc(Cl)c(-c3ccccn3)c2)c(Cl)c1  primary ALL patient cells (S088)    0.764
2  O=C(O)CSc1cc(NS(=O)(=O)c2ccc(Br)cc2)c2ccccc2c1O  primary ALL patient cells (S088)    0.291
3  Cc1cc(Nc2ncc(Cl)c(Nc3ccccc3S(=O)(=O)C(C)C)n2)c(OC(C)C)cc1C1CCNCC1  primary ALL patient cells (S088)    0.788
4  N#CC[C@H](C1CCCC1)n1cc(-c2ncnc3[nH]ccc23)cn1  primary ALL patient cells (S088)    0.912
5  O=C(c1cc(Cc2n[nH]c(=O)c3ccccc23)ccc1F)N1CCN(C(=O)C2CC2)CC1  primary ALL patient cells (S088)    0.775

q: Identify measured viability corresponding to CNC(=O)c1cc(Oc2ccc(NC(=O)Nc3ccc(Cl)c(C(F)(F)F)c3)cc2)ccn1
a: 0.896

====

tested on: primary ALL patient cells (S088); assay: viability relative to DMSO control (fraction); higher = less drug effect (more viable cells); settings: 0.024 µM; 48 h
ATTRIBUTE_MEASURED: viability

> print(dat)
                                   compound  reading
1  Nc1nc(Cl)nc2c1ncn2[C@@H]1O[C@H](CO)[C@@H](O)[C@@H]1F [Clofarabine]    0.569
2  CNC(=O)c1cc(Oc2ccc(NC(=O)Nc3ccc(Cl)c(C(F)(F)F)c3)cc2)ccn1 [Sorafenib]    0.811

Next item in the queue.
q: Give the reported viability for this compound. O=C(O)CSc1cc(NS(=O)(=O)c2ccc(Br)cc2)c2ccccc2c1O [UMI-77]
a: 0.244

====

system: primary FL patient cells (S022); experiment: viability relative to DMSO control (fraction); higher = less drug effect (more viable cells); conditions: 0.6 µM; 48 h
ATTRIBUTE_MEASURED: viability
Numbers only.

Please review the entries below; each comes with its answer.
> print(dat)
                                   compound  reading
1     Nc1nc(=S)c2[nH]cnc2[nH]1 [Thioguanin]    0.835
2  CNC(=O)c1cc(Oc2ccc(NC(=O)Nc3ccc(Cl)c(C(F)(F)F)c3)cc2)ccn1 [Sorafenib]     1.06

Next item in the queue.
q: Identify measured viability associated with N#CC[C@H](C1CCCC1)n1cc(-c2ncnc3[nH]ccc23)cn1 [Ruxolitinib]
a: 1.05

====

test system: primary AML patient cells (S079); assay: viability relative to DMSO control (fraction); higher = less drug effect (more viable cells); details: 0.6 µM; 48 h
ATTRIBUTE_MEASURED: viability

Please state viability for every molecule in the list that follows.
1. CCN1CCN(Cc2ccc(Nc3ncc(F)c(-c4cc(F)c5nc(C)n(C(C)C)c5c4)n3)nc2)CC1
2. Cc1cc(Nc2ncc(Cl)c(Nc3ccccc3S(=O)(=O)C(C)C)n2)c(OC(C)C)cc1C1CCNCC1
3. Nc1nc(Cl)nc2c1ncn2[C@@H]1O[C@H](CO)[C@@H](O)[C@@H]1F

a:
1. 1.03
2. 0.844
3. 0.285
